test system: SK-MEL-5 melanoma; experiment: NCI-60 one-dose screen, 48 h (100 = growth as untreated, 0 = no growth, -100 = all killed); conditions: 10 µM unless noted
About 83,000 compounds went through this panel and 20% of them were active in at least one assay; those are over-represented in the sample as a whole.
A collection of compounds and their measured growth
outcome measure: growth (%)

1. O=C(CNc1ccc2c(c1)C(=O)c1ccccc1C2=O)Nc1ccc2c(c1)C(=O)c1ccccc1C2=O | -98.1
2. O=C(c1ccc(N2CCOCC2)cc1[N+](=O)[O-])N1CCOCC1 | 136
3. O=c1ncc(-c2ccc(C(F)(F)F)cc2)c(NC2CCCCCC2)[nH]1 | 20.9
4. CCOC(=O)c1sc(NC(=O)COc2cccc(/C=C3\CCc4cc(OC)ccc4C3=O)c2)nc1C | 44.1
5. CC(=O)/C(=C/c1ccc(Cl)cc1)C(=O)c1ccccc1 | 94.2
6. CC[C@@H](C)/C=C(C)/C=C/C(O)=C1\C(=O)N[C@@H](Cc2ccc(OC(=O)[C@@](OC)(c3ccccc3)C(F)(F)F)cc2)C1=O | 110
7. O=C1/C(=C/c2ccc(F)cc2)Cc2ccccc21 | 99.9
8. Cc1cc(Cl)ccc1Nc1nc(C(F)(F)F)ccc1C(=O)N/N=C/c1ccc(Cl)cc1 | -13.8
9. C[C@H]1C(=O)N2c3ccccc3[C@@]3(O)C[C@@H](n4cnc5ccccc5c4=O)C(=O)N1[C@@H]23 | 123
10. CC(=O)Nc1ccc(C(=O)COc2ccc(/C=C3\CCc4ccccc4C3=O)cc2)cc1 | 98
11. CCOc1cc(/C=C/C(=O)CC(=O)/C=C/c2ccc(OC(=O)CNc3nc4ccc(OC)cc4s3)c(OCC)c2)ccc1OC(=O)CNc1nc2ccc(OC)cc2s1 | 30.1
12. COc1cc(/C=N/NC(=O)c2ccc(C(F)(F)F)nc2Nc2ccc(Cl)cc2C)ccc1O | -61.3
13. COc1cc(/C=N/NC(=O)c2ccc(C(F)(F)F)nc2Nc2cc(Cl)ccc2C)cc(OC)c1OC | 102
14. COc1cc(NC(=O)NCc2ccco2)ccc1-c1ccc(NC(=O)NCc2ccco2)cc1OC | 30.6
15. CCOC(=O)/C(=C/CC/C(C)=C/CC/C(C)=C/CCc1ccoc1)CC(=O)N1CCCCC1 | 9
16. CCOC(=O)c1sc(NC(=O)COc2cccc(/C=C3\Cc4ccc(Cl)cc4C3=O)c2)nc1C | 97.4
17. COc1cc(/C=C2\CN(S(=O)(=O)c3ccc(C)cc3)C/C(=C\c3cc(CN4CCOCC4)c(O)c(OC)c3)C2=O)cc(CN2CCOCC2)c1O | -63.4
18. CCN(CC)CCOCC[C@H]1CC[C@H]2[C@@H]3[C@H](C)Cc4cc(OS(N)(=O)=O)ccc4[C@H]3CC[C@]12C | -90.4

###

system: KM12 colon; test: NCI-60 one-dose screen, 48 h; settings: 10 µM unless noted
The panel holds about 83,000 compounds, 20% with a hit somewhere; the sample as a whole holds those more often. The source made the active and inactive calls. Rule for the calls: active = growth percent below 10; inactive = the rest.
Classes used: 1 (yes) for active, 0 (no) for inactive

1) COc1cnc2c(c1)C(=O)c1c-2n(CCCN2CCCC2)c(=O)c2cc(F)ccc12 | 1 (yes)
2) COc1ccc(N2CCN(CC(=O)N3CCN(c4nnc(-c5ccccc5)c(-c5ccccc5)n4)CC3)CC2)cc1 | 0 (no)
3) Cc1ccc(/C=C/C(=O)c2ccc(F)cc2)s1 | 0 (no)
4) COc1ccc(C2=NN(C(N)=S)C(c3ccc4c(c3)OCO4)C2)cc1 (stereo not drawn) | 1 (yes)
5) CN(C)CCC(=O)Nc1ccc(-n2cc(-c3cccc(NC(=S)Nc4cccc(-c5cn(-c6ccc(NC(=O)CCN(C)C)cc6)nn5)c4)c3)nn2)cc1 | 0 (no)
6) O=C(O)CNC(=O)C1(N2C(=O)c3ccccc3C2=O)CCCC1 | 0 (no)
7) NS(=O)(=O)c1ccc(-n2ncc3c(N/N=C/c4ccccc4)ncnc32)cc1 | 0 (no)
8) O=C(NC1CCS(=O)(=O)C1)c1ccc(C(=O)c2ccccc2)cc1 (stereo not drawn) | 0 (no)
9) O=C1OC2(c3ccccc31)c1ccccc1-c1ccccc12 | 0 (no)
10) CCCCCCCCCCCCC1CCCC(C)C1 (stereo not drawn) | 0 (no)
11) O=C(/C=C/c1ccc([N+](=O)[O-])cc1)c1ccc2c3c(cccc13)CC2 | 0 (no)
12) CCOC(=O)C(Br)=P(c1ccccc1)(c1ccccc1)c1ccccc1 | 0 (no)
13) COc1ccc(Oc2ccccc2NC(=O)CNC(=O)c2cccc3ccccc23)cc1 | 0 (no)
14) CC(C)Sc1nc(-c2ccc(Br)cc2)c(C#N)c(N2CCCCC2)n1 | 0 (no)
15) CC1(C)CC2(C)CC(=O)C1C(C(=O)O)C2C(=O)O (stereo not drawn) | 0 (no)
16) CCCCCN(CCCCC)CCCNc1c2c(nc3ccc(Cl)cc13)CCCC2 | 0 (no)
17) C[C@H](C(=O)N[C@@H](Cc1ccc(-c2ccccc2)cc1)C(=O)NC1CC(C)(C)N(C)C(C)(C)C1)c1ccc(-c2ccccc2)c(F)c1 | 1 (yes)
18) FC(F)(F)c1ccc(-c2cnc(-c3nn[nH]n3)nc2NC2CCCCCC2)cc1 | 0 (no)
19) COc1ccc(C(=O)COc2ccc(/C=C3\Oc4ccc5ccccc5c4C3=O)cc2)cc1 | 0 (no)
20) CCCc1n(Cc2ccc3ccccc3c2)cc[n+]1Cc1ccc2ccccc2c1 | 1 (yes)
21) CN(C)c1ncnc2c1ncn2C1CCCCO1 (stereo not drawn) | 0 (no)
22) CO[C@H]1/C=C/O[C@@]2(C)Oc3c(C)c(O)c4c(O)c(c(/C=N/N5C(C)CN(Cc6ccc(C#N)cc6)CC5C)c(O)c4c3C2=O)NC(=O)/C(C)=C\C=C\[C@H](C)[C@H](O)[C@@H](C)[C@@H](O)[C@@H](C)[C@H](OC(C)=O)[C@@H]1C (stereo partly drawn) | 0 (no)
23) CCOC(=O)OCC(=O)[C@@]1(O)CC[C@H]2[C@@H]3CCC4=CC(=O)CC[C@]4(C)[C@H]3[C@@H](O)C[C@@]21C | 0 (no)
24) COc1cc(/C=C2\CN(C)CC3=C2Nc2nc(SC)[nH]c(=O)c2C3c2cc(OC)c(OC)c(OC)c2)cc(OC)c1OC (stereo not drawn) | 0 (no)
25) COc1ccc(/C=C2/SC(=Nc3c(C)nn(-c4ccccc4)c3N)NC2=O)cc1 | 0 (no)
26) Cc1ccc(-c2c3c(N)nc(-c4ccncc4)nc3nc3c2c(C)nn3-c2ccccc2)cc1 | 0 (no)
27) Oc1ccc(/C=N/Nc2nc3ccccc3s2)c(O)c1 | 0 (no)
28) COc1ccc2c(=O)c(OC)c(-c3cc(OC)c(OC)c(OC)c3)oc2c1 | 0 (no)
29) COP(=O)(OC)C(c1ccccc1)(c1ccccc1)c1ccccc1 | 0 (no)
30) COc1cc(/C=N/NC(=O)c2ccc(C(F)(F)F)nc2Nc2ccc(Cl)cc2C)ccc1O | 0 (no)
31) O=C(COc1ccc(/C=C2\Cc3ccccc3C2=O)cc1)c1ccc(Cl)cc1 | 0 (no)
32) O=C(c1ccccc1)c1ccc(Oc2ccc([N+](=O)[O-])cc2[N+](=O)[O-])cc1 | 1 (yes)
33) O=C(COc1ccc(/C=C2\Oc3ccc4ccccc4c3C2=O)cc1)c1ccc(Cl)cc1 | 0 (no)
34) COc1cnc2c(c1)C(=O)c1c-2n(CCCn2ccnc2)c(=O)c2cc(F)ccc12 | 1 (yes)
35) CC(C)OP(=O)(OC(C)C)c1ncc(-c2ccc(C(F)(F)F)cc2)c(NC2CCCCCC2)n1 | 1 (yes)
36) COc1ccc(CNC(=O)c2c(C)n([O-])c3ccc(OC)cc3[n+]2=O)cc1 | 0 (no)
37) COc1ccc2c(c1)[n+](=O)c(C(=O)/C=C/c1cc(OC)c(OC)c(OC)c1)c(C)n2[O-] | 0 (no)
38) CCN(CC)CCCCCCCNc1c2ccc(Cl)cc2nc2ccc(OC)cc12 | 1 (yes)
